# STUDY_SYSTEM: T1, human LTBP1-proTGFβ1 complex (human, UniProt Q14766 873-1507)
# T1 construct: range 873-1507; biotinylated in Octet and MSD-SET; also called hLTBP1-proTGFβ1; hLTBP1
# T1 sequence (Q14766 873-1507 limits assumed, chain 1 of 2): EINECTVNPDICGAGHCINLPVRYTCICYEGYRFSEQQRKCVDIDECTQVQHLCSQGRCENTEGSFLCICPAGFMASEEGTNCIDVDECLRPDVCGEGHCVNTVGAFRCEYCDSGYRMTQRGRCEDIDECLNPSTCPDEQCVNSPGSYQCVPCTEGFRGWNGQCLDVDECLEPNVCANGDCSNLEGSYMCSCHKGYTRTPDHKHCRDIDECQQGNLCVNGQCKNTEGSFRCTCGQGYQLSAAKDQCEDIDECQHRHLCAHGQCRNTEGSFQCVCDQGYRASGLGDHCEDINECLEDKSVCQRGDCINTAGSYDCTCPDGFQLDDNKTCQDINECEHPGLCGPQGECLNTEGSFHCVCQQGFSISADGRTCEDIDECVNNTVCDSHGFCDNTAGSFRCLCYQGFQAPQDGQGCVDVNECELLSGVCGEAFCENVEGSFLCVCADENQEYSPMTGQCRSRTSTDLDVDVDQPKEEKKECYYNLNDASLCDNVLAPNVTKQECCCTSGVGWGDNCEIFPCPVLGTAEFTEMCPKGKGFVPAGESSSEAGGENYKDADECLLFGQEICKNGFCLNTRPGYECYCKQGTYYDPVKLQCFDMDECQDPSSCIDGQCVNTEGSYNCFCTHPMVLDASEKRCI
# T1 sequence (chain, as listed by the source limits assumed, chain 2 of 2): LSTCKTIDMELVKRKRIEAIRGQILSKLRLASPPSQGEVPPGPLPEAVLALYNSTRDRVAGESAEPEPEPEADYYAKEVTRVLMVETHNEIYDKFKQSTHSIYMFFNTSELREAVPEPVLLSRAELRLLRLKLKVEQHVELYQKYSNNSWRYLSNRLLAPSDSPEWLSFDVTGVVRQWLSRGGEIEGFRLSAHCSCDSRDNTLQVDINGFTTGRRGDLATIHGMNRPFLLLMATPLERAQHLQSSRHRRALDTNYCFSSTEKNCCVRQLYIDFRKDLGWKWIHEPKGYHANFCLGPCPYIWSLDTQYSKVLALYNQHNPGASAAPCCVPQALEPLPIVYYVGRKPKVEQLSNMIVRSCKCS
# EXPERIMENT_DESCRIPTION: BLI (Octet)
Could you please mark Criterion met for values of Kd below 200 pM and Criterion not met for values at or above it?

{"BINDER": "Ab31 (antibody, IgG4, V domains shown) VH: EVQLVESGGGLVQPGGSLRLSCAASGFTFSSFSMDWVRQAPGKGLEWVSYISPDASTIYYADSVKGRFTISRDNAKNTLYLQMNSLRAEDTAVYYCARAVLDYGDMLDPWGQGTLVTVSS VL: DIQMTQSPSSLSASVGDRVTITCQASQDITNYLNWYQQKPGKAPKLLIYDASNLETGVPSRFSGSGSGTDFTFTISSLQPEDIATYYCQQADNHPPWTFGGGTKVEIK", "GROUP": "Criterion not met"}
{"BINDER": "Ab24 (antibody, IgG4, V domains shown) VH: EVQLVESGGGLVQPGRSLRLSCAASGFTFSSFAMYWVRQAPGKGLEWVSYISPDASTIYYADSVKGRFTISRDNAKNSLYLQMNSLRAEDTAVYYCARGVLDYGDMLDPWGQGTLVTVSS VL: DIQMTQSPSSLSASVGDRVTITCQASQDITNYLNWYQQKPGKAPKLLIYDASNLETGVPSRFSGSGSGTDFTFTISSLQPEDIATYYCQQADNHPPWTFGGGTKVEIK", "GROUP": "Criterion not met"}
{"BINDER": "Ab13 (antibody, V domains shown) VH: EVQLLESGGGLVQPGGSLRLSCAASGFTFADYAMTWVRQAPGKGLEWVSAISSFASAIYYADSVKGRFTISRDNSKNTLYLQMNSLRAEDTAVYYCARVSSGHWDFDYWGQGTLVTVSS VL: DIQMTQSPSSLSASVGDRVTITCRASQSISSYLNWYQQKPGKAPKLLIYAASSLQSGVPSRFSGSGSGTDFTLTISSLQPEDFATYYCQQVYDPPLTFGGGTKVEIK", "GROUP": "Criterion not met"}
{"BINDER": "Ab26 (antibody, IgG4, V domains shown) VH: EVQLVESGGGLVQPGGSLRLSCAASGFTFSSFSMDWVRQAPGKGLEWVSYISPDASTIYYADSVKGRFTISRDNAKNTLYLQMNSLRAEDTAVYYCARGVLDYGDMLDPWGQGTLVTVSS VL: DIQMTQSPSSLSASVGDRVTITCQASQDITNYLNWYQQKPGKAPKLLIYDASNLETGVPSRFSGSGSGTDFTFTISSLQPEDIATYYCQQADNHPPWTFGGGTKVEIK", "GROUP": "Criterion not met"}
{"BINDER": "Ab28 (antibody, V domains shown) VH: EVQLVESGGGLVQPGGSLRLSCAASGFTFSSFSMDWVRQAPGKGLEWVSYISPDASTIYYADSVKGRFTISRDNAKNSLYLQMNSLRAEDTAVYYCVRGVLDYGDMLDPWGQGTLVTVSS VL: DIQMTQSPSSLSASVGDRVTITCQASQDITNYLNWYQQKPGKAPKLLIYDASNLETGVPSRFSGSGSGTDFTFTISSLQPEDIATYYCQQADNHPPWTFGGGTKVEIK", "GROUP": "Criterion not met"}
{"BINDER": "Ab6 (antibody, human IgG4 S228P, kappa, V domains shown) VH: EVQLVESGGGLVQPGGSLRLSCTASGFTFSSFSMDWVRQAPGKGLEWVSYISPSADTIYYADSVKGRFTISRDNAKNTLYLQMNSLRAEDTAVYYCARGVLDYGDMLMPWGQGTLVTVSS VL: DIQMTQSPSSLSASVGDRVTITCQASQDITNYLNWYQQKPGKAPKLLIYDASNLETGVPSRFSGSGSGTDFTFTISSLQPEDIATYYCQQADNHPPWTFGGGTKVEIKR", "GROUP": "Criterion not met"}

Could you please tell me whether Kd recorded for Ab16 (antibody, V domains shown) VH: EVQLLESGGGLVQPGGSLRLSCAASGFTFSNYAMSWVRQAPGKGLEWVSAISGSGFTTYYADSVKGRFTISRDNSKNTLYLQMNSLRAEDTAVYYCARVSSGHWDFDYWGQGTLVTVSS VL: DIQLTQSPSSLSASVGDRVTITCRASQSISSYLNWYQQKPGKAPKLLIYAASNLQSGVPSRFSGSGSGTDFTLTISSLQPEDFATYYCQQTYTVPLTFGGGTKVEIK is less than 200 pM?
Criterion met

Kd under 200 pM? Item: Ab14 (antibody, V domains shown) VH: EVQLLESGGGLVQPGGSLRLSCAASGFTFSAYAMTWVRQAPGKGLEWVSAISGTGGSTYYADSVKGRFTISRDNSKNTLYLQMNSLRAEDTAVYYCARVSSGHWDFDYWGQGTLVTVSS VL: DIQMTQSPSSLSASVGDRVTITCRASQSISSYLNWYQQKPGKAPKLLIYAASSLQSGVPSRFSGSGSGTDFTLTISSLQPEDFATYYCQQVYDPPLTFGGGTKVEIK
Criterion not met

For Ab20 (antibody, IgG4, V domains shown) VH: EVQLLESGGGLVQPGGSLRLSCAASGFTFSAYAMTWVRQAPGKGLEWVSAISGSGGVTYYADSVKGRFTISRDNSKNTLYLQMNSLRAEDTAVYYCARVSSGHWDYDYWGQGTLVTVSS VL: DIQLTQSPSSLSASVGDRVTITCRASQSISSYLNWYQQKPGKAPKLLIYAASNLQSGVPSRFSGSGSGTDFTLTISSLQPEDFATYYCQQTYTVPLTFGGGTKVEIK , is the recorded Kd below the cut-off of 200 pM?
Criterion met

Does the reported Kd of Ab30 (antibody, IgG4, V domains shown) VH: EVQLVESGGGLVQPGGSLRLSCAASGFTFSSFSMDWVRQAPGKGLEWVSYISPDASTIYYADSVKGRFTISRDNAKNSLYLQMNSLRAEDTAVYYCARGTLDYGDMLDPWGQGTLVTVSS VL: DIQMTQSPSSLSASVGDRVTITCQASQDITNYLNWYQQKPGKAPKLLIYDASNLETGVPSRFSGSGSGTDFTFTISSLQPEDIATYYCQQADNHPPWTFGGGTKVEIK stay below 200 pM?
Criterion not met
